Entries and their Activity
- Test system: J774.A1
- ASSAY_EXPLANATION: Cytotoxicity against mouse J774.A1 cells assessed as reduction in viability at 10 uM incubated for 20 hrs by MTT assay
- Format: toxicity, cell-based
- CONDITIONS: j774.a1, 20 h

| MOLECULE | TEST_SYSTEM | Activity, % |
| --- | --- | --- |
| OC[C@H]1O[C@@H](n2cc(C(c3ccc(F)cc3)c3cn([C@@H]4O[C@H](CO)[C@@H](O)[C@@H](O)[C@H]4O)c4ccc(Br)cc34)c3cc(Br)ccc32)[C@H](O)[C@H](O)[C@@H]1O (stereo partly drawn) | J774.A1 | 96.25 |
| Fc1ccc(C(c2c[nH]c3ccc(Br)cc23)c2c[nH]c3ccc(Br)cc23)cc1 | J774.A1 | 39.59 |
| Fc1ccc(C(c2c[nH]c3ccccc23)c2c[nH]c3ccccc23)cc1 | J774.A1 | 26.23 |
